Quick reference for Rel. CTS Specificity as % of MBG Binding: OUB among some molecules
TEST_METHOD_NOTES: Competitive ELISA, relative CTS specificity, OUB as competitor
Type: binding
ASSAY_CONDITIONS: competition with immobilized MBG-BSA; normalized to MBG = 100%
# include the unit after the value

Lookup: Read off the recorded Rel. CTS Specificity as % of MBG Binding: OUB for 236/237: human anti-MBG antibody, VH SEQ ID NO: 14, VL SEQ ID NO: 15 (antibody, listed as Homo sapiens, V domains shown) VH: QVQLQESGPGLVKPSETLSLTCTVSGGSISSSSYYWGWIRQPPGKGLEWIGSIYYSGSTYYNPSLKSRVTISVDTSKNQFSLKLSSVTAADTAVYYCARARYNWNYVLFDYWGQGTLVTVSS VL: QAVLTQPSSVSAAPRQRVTISCSGSASNIGRNGVSWYHQVPGKAPRLLLSHDGLVTSGVPDRLSVSKSGTSASLAISGLHSDDEGDYYCAVWDDSLNAVVFGGGTKLTVLS
Found: 0%

Turning now to a further molecule:
Lookup: Read off the recorded Rel. CTS Specificity as % of MBG Binding: OUB for 206/208: human anti-MBG antibody, VH SEQ ID NO: 36, VL SEQ ID NO: 37 (antibody, listed as Homo sapiens, V domains shown) VH: QVQLQESGPGLVKPSETLSLTCTVSGGSISSSSYYWGWIRQPPGKGLEWIGSIYYSGSTYYNPSLKSRVTISVDTSKNQFSLKLSSVTAADTAVYYCARVNLRGAFDIWGQGTTVTVSS VL: QSVVTQPPSVSGAPGQRVTISCTGSSSNIGAGYDVHWYQQLPGTAPKLLIYENNKRPSGIPDRFSGSKSGTSATLGITGLQTGDEADYYCGTWDSSLSAVVFGGGTKLTVL
Found: 0%

All values here come from patent US10654925B2.
